Tested on: CCRF-CEM leukemia
Assay: NCI tumour cell line growth inhibition, 48 h
Quantity: TGI (µM)

>>> print(df.to_string())
                                   molecule  quantity  censoring_qualifier  measured
0  S=C1SC(=Nc2ccccc2)C(=Nc2ccccc2)N1c1ccc2ccccc2c1       TGI                    >       100
1      COC(=O)Cn1cnc2c(Cl)nc(Nc3ccccc3)nc21       TGI                    =      96.7
2             Cc1cc(-c2nc3cccc(O)c3s2)ccc1N       TGI                    =      65.2
3  COc1cc(C2C3=C(COC3=O)N(CCO)c3cc4c(cc32)OCCO4)cc(OC)c1OC (stereo not given)       TGI                    >        50
4  Clc1ccc(-c2c3ccc(=[N+]4CCCCC4)cc-3oc3cc(N4CCCCC4)ccc23)cc1       TGI                    =      1.97

Values compiled from PubChem BioAssay (NCI).
